Test system: UACC-62 melanoma
Assay: NCI tumour cell line growth inhibition, 48 h
Exercise: for every item that follows, state its recorded log10(TGI).
Scale: log10; quantity: TGI; unit before log: µM

Inquiry: Bench note: what log10(TGI) did `CCCCc1ccc(Nc2nc(N)c3[nH]cnc3n2)cc1` show?
Reply text: 1.55

Inquiry: Next: O=C(NCCc1ccccc1)C(c1csc2ccccc12)N(C(=O)CCl)c1ccc(-c2cnco2)cc1 (stereo unspecified)
Reply text: 0.45

Inquiry: Try this compound next: `Brc1ccc2c(c1)[C@H]1CCc3c([nH]c4ccccc34)[C@H]1N2`
Reply text: 1.38

Inquiry: Can you check `O=c1[nH]/c(=C/c2cccs2)c(=O)[nH]/c1=C/c1ccc(OCc2ccccc2)cn1` next?
Reply text: 1.61

Inquiry: Could you do the same for `Oc1cccc(-c2cc(=S)ss2)c1` , please?
Reply text: 1.58

Inquiry: // same read-out, input: `CSc1nc(NC2CC2)c2c(n1)Sc1nc3ccccc3n1N=C2`
Reply text: 1.89

* * *

Tested on: T-47D breast
Assay: NCI tumour cell line growth inhibition, 48 h; in the data active = GI50 below about 0.43 µM; inactive = the rest
Where a SMILES comes first, the peptide text is derived from it. [ ]: non-standard residue; d: D form. The star is where a group is joined. ξ: configuration not given here. 4Abz = Nc1ccc(C(=O)O)cc1; ξL = CC(C)CC(N)C(=O)O; NHOH = ON*
Result category, one only: active, inactive

Inquiry: Fill in: this test's call for CC([C@H]1CCC2C3CCC4C(=O)C(NC=O)=CC[C@]4(C)C3CC[C@@]21C)N(C)C (some centres undefined) is ___
Reply text: inactive

Inquiry: Now this one: CC(C)CC(NC(=O)[C@@H]1CCCN1C(=O)CNC(=O)c1ccc(N)cc1)C(=O)N[C@H](C)C(=O)NO (some centres undefined) (H-[4Abz]GP[ξL][dA]-{NHOH})
Reply text: inactive

Inquiry: Same lookup for `C=CC[n+]1c(/C=C2\Sc3ccccc3N2C)sc(-c2ccccc2)c1-c1ccccc1` , please.
Reply text: active

Inquiry: Entry to check: COC(=O)C1=C(O)C(C(=O)OC)[C@@]2(O)[C@@H](C(=O)OC)C(c3ccccc3C(F)(F)F)C[C@@H]1[C@@H]2C(=O)OC (some centres undefined)
Reply text: inactive

* * *

System: SK-MEL-28 melanoma
Assay: NCI tumour cell line growth inhibition, 48 h
Where a SMILES comes first, the peptide text is derived from it. [ ]: non-standard residue; d: D form. The star is where a group is joined. ξ: configuration not given here. 4Abz = Nc1ccc(C(=O)O)cc1; ξL = CC(C)CC(N)C(=O)O; NHOH = ON*
MEASURED_PARAMETER: GI50

Inquiry: Can you share its GI50? I mean this molecule: `CN1CCN(c2nc(NCCNc3ccnc4cc(Cl)ccc34)c3ccccc3n2)CC1`
Reply text: 1.83 µM

Inquiry: Same question, CC(C)CC(NC(=O)[C@@H]1CCCN1C(=O)CNC(=O)c1ccc(N)cc1)C(=O)N[C@H](C)C(=O)NO (some centres undefined) (H-[4Abz]GP[ξL][dA]-{NHOH}) this time
Reply text: > 100 µM

Inquiry: Another: `Cc1cc(C)c2nc(Nc3nc(C)c(C)c(=O)[nH]3)nc(C)c2c1`
Reply text: 2.35 µM

Inquiry: Same lookup for `Cc1c(Br)cccc1NC(=O)c1sc2nc3c(cc2c1N)CN(Cc1ccccc1)CC3` , please.
Reply text: 0.977 µM

Inquiry: Please do the same for `O=C1C=Cc2cc3ccccc3c3cccc1c23` as well.
Reply text: 10.5 µM

Inquiry: Try `NS(=O)(=O)OC[C@H]1O[C@@H](n2cnc3c(N[C@H]4CCc5ccccc54)ncnc32)[C@H](O)[C@@H]1O` next.
Reply text: 0.047 µM

Inquiry: Can you check `CCCCCCCC(=O)SCC/C=C/[C@@H]1CC(=O)NCc2cccc(n2)CN(Cc2ccc(Cl)cc2)CC(=O)N[C@@H](C(C)C)C(=O)O1` next?
Reply text: 5.04 µM

Inquiry: // repeat for COc1cc(C2CC(c3ccc(C)cc3)=NN2C(C)=O)ccc1Oc1ccnc2cc(Cl)ccc12 (centres undefined) and report
Reply text: > 100 µM

Inquiry: // next record `O=c1cc(N2CCOCC2)oc2c(-c3ccccc3)cccc12`
Reply text: 6.57 µM

* * *

Test system: SK-MEL-2 melanoma
Experiment: NCI tumour cell line growth inhibition, 48 h
I'd appreciate it if you could supply TGI values for the items below.
Could you give me the number in µM? Just the number is fine.

Inquiry: What is its TGI for SK-MEL-2 melanoma? Entry: `CCOC(=O)C(=C=Cc1cccs1)C(=O)c1ccccc1`
Reply text: 33.4

Inquiry: Also, C=C1c2c(C)nn(-c3ccccc3)c2N(C)C23C[C@@H]1C1(C)c4c(C)nn(-c5ccccc5)c4N(C)C(C)(C[C@H]12)C3 (stereo partly specified) please.
Reply text: 22

Inquiry: Moving on to the next compound: `CN1CCN(c2nc(NCCNc3ccnc4cc(Cl)ccc34)c3ccccc3n2)CC1`
Reply text: 4.19

Inquiry: // same read-out, input: CCOC(=O)C(C(N)=O)c1nc2cc([N+](=O)[O-])ccc2nc1/C=C(\O)c1ccc(C)cc1 (stereo unspecified)
Reply text: 48.9

Inquiry: Same question, CCCCC#Cc1c(I)n(C2OC(CO[Si](C)(C)C(C)(C)C)C3OC(C)(C)OC32)c(=O)[nH]c1=O (stereo unspecified) this time
Reply text: 3.58

Inquiry: // repeat for `COC(=O)c1ccc2c(c1)[n+](=O)c(C(C)=O)c(C(F)(F)F)n2[O-]` and report
Reply text: 4.8

Inquiry: Proceed to `c1ccc2c3c(c(N4CCNCC4)nc2c1)CCCC3`
Reply text: 25.2

Inquiry: Try the compound `Oc1ccc(Br)cc1CN1CCN(Cc2ccc(Cl)cc2)CC1`
Reply text: 40.3

Inquiry: Moving on to the next compound: `COc1c2c(cc3oc(=O)ccc13)OC(C)(C)C=C2`
Reply text: 51.1

Inquiry: // query: `O=C(O)/C=C/C(=O)Nc1cccc2c1-c1ccccc1C2=O`
Reply text: 32.9

* * *

System: SK-MEL-5 melanoma
Assay: NCI tumour cell line growth inhibition, 48 h
For each entry below, report its GI50 value.

Inquiry: For SK-MEL-5 melanoma, provide GI50 of `COc1cccc(-n2cnc3c(N/N=C/c4ccncc4)ncnc32)c1` please.
Reply text: 10.5 µM

Inquiry: Same read-out for Nc1nc(Cl)cc2c1ncn2C1OC(CO)C(O)C1O (centres undefined) ?
Reply text: > 100 µM

Inquiry: Another: `CCCCCCCC(=O)SCC/C=C/[C@@H]1CC(=O)NCc2cccc(n2)CN(Cc2ccc(Cl)cc2)CC(=O)N[C@@H](C(C)C)C(=O)O1`
Reply text: 5.26 µM

Inquiry: What about this compound? CC(C)=CCNc1ncnc2c1ncn2C1OC(COP(=O)(O)O)C(O)C1O (centres undefined)
Reply text: > 73.7 µM

Inquiry: What about this compound? N#CC1=C(N)Oc2c(sc3c(F)cccc23)C1c1ccc(Cl)cc1 (centres undefined)
Reply text: 3.68 µM

Inquiry: Next record, please: N#CC1=C(N)NC(=S)NC1c1ccc(-c2ccc(-c3nc4ccccc4s3)cc2)o1 (centres undefined)
Reply text: 14.6 µM

Inquiry: What about this compound? `O=c1cc(N2CCOCC2)oc2c(-c3ccccc3)cccc12`
Reply text: 9.35 µM

Inquiry: Would you kindly repeat that for `O=C(CCCCCn1c2ccccc2c2c3c(c4c5ccccc5[nH]c4c21)C(=O)N(O)C3=O)N1CCOCC1` ?
Reply text: 1.64 µM

Inquiry: Okay, and `CC(=N\O)/C(C)=N/O.CC(=N\O)/C(C)=N/O.[Pd]` ?
Reply text: 1.81 µM

* * *

Test system: LOX IMVI melanoma
Assay: NCI tumour cell line growth inhibition, 48 h
Where a SMILES comes first, the peptide text is derived from it. [ ]: non-standard residue; d: D form. The star is where a group is joined. ξ: configuration not given here. 4Abz = Nc1ccc(C(=O)O)cc1; ξL = CC(C)CC(N)C(=O)O; NHOH = ON*
MEASURED_PARAMETER: GI50

Inquiry: # get_value(readout= GI50, system= LOX IMVI melanoma) for `COc1cc(Oc2cnc3cc(N)cc(N)c3n2)cc(OC)c1OC`
Reply text: 33.4 µM

Inquiry: Moving on to CC(C)CC(NC(=O)[C@@H]1CCCN1C(=O)CNC(=O)c1ccc(N)cc1)C(=O)N[C@H](C)C(=O)NO (stereo not given in full) (H-[4Abz]GP[ξL][dA]-{NHOH})
Reply text: > 100 µM

Inquiry: Next: `NS(=O)(=O)OC[C@H]1O[C@@H](n2cnc3c(N[C@H]4CCc5ccccc54)ncnc32)[C@H](O)[C@@H]1O`
Reply text: 0.0209 µM

Inquiry: What do you have for `CCCCCCCC(=O)SCC/C=C/[C@@H]1CC(=O)NCc2cccc(n2)CN(Cc2ccc(Cl)cc2)CC(=O)N[C@@H](C(C)C)C(=O)O1` ?
Reply text: 5.33 µM

Inquiry: Quick one: `COC(=O)c1ccc2c(c1)CCN2C(=O)c1cc2c(cc1Br)OCO2`
Reply text: 0.936 µM

Inquiry: Would you mind doing `COc1ccc(-n2cc(-c3ccc(Cl)cc3)[nH]c2=S)cc1Cl` as well?
Reply text: 94 µM

Inquiry: // query: Nc1ncnc2c1ncn2C1OC(CO)C(O)C1O (stereo not given)
Reply text: 5.73 µM

Inquiry: Again, but for `COc1cccc(-n2cnc3c(N/N=C/c4ccncc4)ncnc32)c1`
Reply text: 12.8 µM

Inquiry: Same question, `COc1cc2c(cc1OC)[C@@H]1[C@H](C2=O)c2ccc([N+](=O)[O-])cc2C(=O)N1CCCBr` this time
Reply text: 0.2 µM

Inquiry: Again, but for N#CC1=C(N)NC(=S)NC1c1ccc(-c2ccc(-c3nc4ccccc4s3)cc2)o1 (stereo not given)
Reply text: 10.6 µM
